System Tested: T1, recombinant human CD14 (B294801, histidine tagged) (Homo sapiens, UniProt P08571)
T1 construct: His; purchased Shanghai BaiYing Biotechnology Co., Ltd B294801 (Batch number 20200518A22)
T1 sequence (P08571 20-345): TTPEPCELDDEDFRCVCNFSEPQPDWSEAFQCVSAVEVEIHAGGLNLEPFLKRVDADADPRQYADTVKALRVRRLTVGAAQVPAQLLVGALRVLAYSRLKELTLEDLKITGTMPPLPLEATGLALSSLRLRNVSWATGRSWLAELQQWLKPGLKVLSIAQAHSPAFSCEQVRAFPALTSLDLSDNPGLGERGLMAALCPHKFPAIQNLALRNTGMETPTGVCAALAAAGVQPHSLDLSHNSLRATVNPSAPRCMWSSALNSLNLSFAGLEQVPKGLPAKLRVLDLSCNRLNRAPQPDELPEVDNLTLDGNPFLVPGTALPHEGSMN
Assay Summary: Biacore 8K kinetic and affinity test of humanized antibodies (Example 8)
Assay type: binding
Stated Conditions: Biacore 8K, analyte B294801 0.78125-25 nM, capture 1 μg/mL
Assay Metric: koff (1:1 binding)

1. D6DD3D015: humanized anti-CD14 antibody; VH SEQ ID NO: 57, VL SEQ ID NO: 59 (antibody, V domains shown) VH: QVQLQESGPGLVKPSETLSLTCTVSGYSITSDSAWNWIRQPPGKGLEWIGYISYSGSTSYNPSLKSRVTISRDTSKNQFSLKLSSVTAADTAVYYCVRGLRFAYWGQGTLVTVSS VL: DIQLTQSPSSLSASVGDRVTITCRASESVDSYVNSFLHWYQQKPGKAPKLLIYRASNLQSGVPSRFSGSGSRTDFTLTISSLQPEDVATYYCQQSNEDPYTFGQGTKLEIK : 0.000843 s⁻¹

Sourced from patent US20250011456A1
